- Test system: Escherichia coli TOP10;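 also: peptides expressed intracellularly from a pBAD plasmid library in pooled LB shake-flask culture, induced with 0.3% L-arabinose, DNA abundance read by NGS, three biological replicates, DESeq2 with apeglm shrinkage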
- EXPERIMENT_DESCRIPTION: shrunken log2 fold change of peptide-encoding DNA abundance (4.5 h post-induction vs induction); higher = less antimicrobial activity (less host growth inhibition)
- CONDITION_DESCRIPTION: time post-induction: 4.5 h; library: site-saturation at positions 5, 18, 19, 20
Item-by-item account of shrunken log2 fold change

MONOMER_SEQUENCE | shrunken log2 fold change
RRIRSRPPRLPRPRPRPLWPPRP | 0.229
RRIRSRPPRLPRPRPRPAACPRP | 0.222
RRIRSRPPRLPRPRPRPVTQPRP | 0.168
RRIRTRPPRLPRPRPRPIIYPRP | -0.216
RRIRMRPPRLPRPRPRPMLSPRP | 0.0117
RRIRTRPPRLPRPRPRPDPIPRP | 0.03
RRIRSRPPRLPRPRPRPHGAPRP | 0.104
RRIRIRPPRLPRPRPRPVYLPRP | -0.0309
RRIRMRPPRLPRPRPRPIFEPRP | 0.166
RRIRSRPPRLPRPRPRPHYSPRP | -0.596
RRIRPRPPRLPRPRPRPFSVPRP | -0.0603
RRIRCRPPRLPRPRPRPMFVPRP | -0.261
RRIRKRPPRLPRPRPRPEVLPRP | 1.57
RRIRTRPPRLPRPRPRPGSKPRP | 0.0896
RRIRVRPPRLPRPRPRPIYDPRP | -0.576
RRIRSRPPRLPRPRPRPIIDPRP | -0.178
RRIRRRPPRLPRPRPRPEEEPRP | 0.855
RRIRMRPPRLPRPRPRPWFGPRP | 0.134
RRIRNRPPRLPRPRPRPNDTPRP | -0.236
RRIRERPPRLPRPRPRPHERPRP | -0.00965
RRIRRRPPRLPRPRPRPVLNPRP | 0.0825
RRIRQRPPRLPRPRPRPYNGPRP | -0.631
RRIRYRPPRLPRPRPRPHLPPRP | -0.542
RRIRRRPPRLPRPRPRPHAYPRP | -0.394
RRIRLRPPRLPRPRPRPFWQPRP | -0.0702
RRIRWRPPRLPRPRPRPWNDPRP | 0.0222
RRIRYRPPRLPRPRPRPKMRPRP | 0.198
RRIRERPPRLPRPRPRPTWVPRP | 0.138
RRIRDRPPRLPRPRPRPTTHPRP | 0.313
RRIRARPPRLPRPRPRPEPSPRP | 1.22
RRIRYRPPRLPRPRPRPFNLPRP | -0.271
RRIRVRPPRLPRPRPRPIVEPRP | -0.0668
RRIRHRPPRLPRPRPRPQDNPRP | -0.144
RRIRLRPPRLPRPRPRPYFDPRP | -0.255
RRIRRRPPRLPRPRPRPFDMPRP | -0.0228
RRIRWRPPRLPRPRPRPNTQPRP | 0.448
RRIRNRPPRLPRPRPRPRRVPRP | 0.551
RRIRPRPPRLPRPRPRPVEQPRP | 0.239
RRIRDRPPRLPRPRPRPLPAPRP | 0.574
RRIRLRPPRLPRPRPRPQCHPRP | 0.0598
RRIRWRPPRLPRPRPRPMDSPRP | -0.198
RRIRERPPRLPRPRPRPDFDPRP | -0.356
RRIRWRPPRLPRPRPRPYADPRP | -0.0623
RRIRARPPRLPRPRPRPCQDPRP | -0.163
RRIRMRPPRLPRPRPRPYMMPRP | -0.111
RRIRYRPPRLPRPRPRPSFHPRP | -1.01
RRIRFRPPRLPRPRPRPNMWPRP | -0.485
RRIRIRPPRLPRPRPRPYNHPRP | -0.138
RRIRRRPPRLPRPRPRPDKYPRP | -0.259
RRIRARPPRLPRPRPRPNKKPRP | -0.00857
RRIRVRPPRLPRPRPRPKHYPRP | -0.459
RRIRVRPPRLPRPRPRPEWTPRP | 0.171
RRIRKRPPRLPRPRPRPFKHPRP | -0.0024
RRIRKRPPRLPRPRPRPEITPRP | 2.03
RRIRHRPPRLPRPRPRPNFWPRP | 0.257
RRIRYRPPRLPRPRPRPQSIPRP | -0.0346
RRIRTRPPRLPRPRPRPWIFPRP | -0.0415
RRIRFRPPRLPRPRPRPSDCPRP | -0.476
RRIRARPPRLPRPRPRPEDVPRP | 0.931
RRIRQRPPRLPRPRPRPNWCPRP | -0.0237
RRIRLRPPRLPRPRPRPHYNPRP | -0.779
RRIRSRPPRLPRPRPRPQGNPRP | -0.679
RRIRTRPPRLPRPRPRPFGPPRP | 0.204

Provenance of the data: the supplement of paper PMC9112550
